test_details: Single-dose plasma pharmacokinetics
Format: in vivo, human
experimental_parameters: human, plasma, po, 4 mg, tmax, single oral 4 mg, day 1, median (range), N = 9
measured_attribute: Tmax (h)
Response body: numeric value in h, unit text excluded.

Inquiry: Endpoint output: Tmax of CCS(=O)(=O)N1CC(CC#N)(n2cc(-c3ncnc4[nH]ccc34)cn2)C1 . Value?
Reply text: 1

====

test_details: Multiple-dose plasma pharmacokinetics
Format: in vivo, human
experimental_parameters: human, plasma, oral, 4 mg
measured_attribute: AUC (ng·h/mL)
Please reply with the bare figure in ng·h/mL and do not write the unit itself.

Inquiry: Returns the measured AUC for the input molecule. Input: CCS(=O)(=O)N1CC(CC#N)(n2cc(-c3ncnc4[nH]ccc34)cn2)C1
Reply text: 268
